Entries and their measured composite z-score follow.
Assay: small-molecule microarray binders of probe aNog, primary screen, biochemical, biotinylated probe, 635/667 nm fluorescence (AID 1115);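 note: probe is biotinylated aNog protein used at 0.15 µg/mL for 1 h at 4 C; z-score combines 667 nm fluorescence of each spot with its signal to noise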
Conditions: higher = more signal
Observed property: composite z-score

CCN1C(=O)[C@H]2[C@H]3[C@H](O)[C@H](O)CC(=NO[C@@H]4O[C@H](COC(C)=O)[C@@H](OC(C)=O)[C@H](OC(C)=O)[C@H]4OC(C)=O)[C@@H]3CC[C@H]2C1=O = 0.166
CO[C@H]1COC(=O)[C@H](C)COC(=O)[C@H](C)NC(=O)CC=C[C@H]1C = -0.41
CC(C)[C@@H](OCc1ccccc1)[C@H](C)C=NO[C@@H](C)c1cn([C@H](CO)Cc2ccccc2)nn1 = 0.0715
C[C@@H]1CC[C@H]2C(=O)O[C@@H](COc3ccc(C(C)(C)C)cc3)CN2[C@H]1c1ccc(Br)cc1 = 0.0762
COC(=O)[C@H](C)NC(=O)CCC1CC(OC(=O)NCc2cccc3ccccc23)CC2(CCCC(COC(=O)NCc3ccccc3)O2)O1 (some centres undefined) = -0.495
O=C1[C@H]2[C@H]3[C@H](O)[C@H](O)CC(=NOC[C@@H](O)COCc4ccco4)[C@@H]3CC[C@H]2C(=O)N1C1CCCCC1 = -0.5
CC(C)(C)N1C(=O)[C@H]2[C@H]3[C@H](O)[C@H](O)CC(=NOC[C@@H](O)COCc4ccco4)[C@@H]3CC[C@H]2C1=O = -0.0733
C[C@H]1CC[C@H]2C(=O)N[C@H](Cc3ccccc3)C(=O)N2[C@@H]1c1ccccc1 = -0.0428
CC(=O)OC[C@H]1O[C@H](CC=NOC[C@@H](O)COCc2ccco2)C=C[C@@H]1OC(C)=O = -0.498
O=C1[C@H]2[C@H]3[C@H](O)[C@H](O)CC(=NOCc4ccccc4)[C@@H]3CC[C@H]2C(=O)N1c1cccc(Oc2ccccc2)c1 = 0.0051
O=C(NN=C1C[C@@H](O)[C@@H](O)[C@@H]2[C@@H]3C(=O)N(Cc4ccccc4)C(=O)[C@@H]3CC[C@H]12)OCc1ccccc1 = 0.0313
CCOC(=O)[C@H](Cc1ccccc1)NC(=O)CCC1CC(OC(=O)NCc2cccc3ccccc23)CC2(CCCC(COC(=O)NCCc3ccc(Cl)cc3)O2)O1 (some centres undefined) = 0.793
O=C1C[C@@H](O)[C@@H](O)[C@@H]2[C@@H]3C(=O)N(c4ccc(F)cc4F)C(=O)[C@@H]3CC[C@H]12 = -0.213
CC(C)CON=C1C[C@@H](O)[C@@H](O)[C@@H]2[C@@H]3C(=O)N(c4ccc(F)cc4F)C(=O)[C@@H]3CC[C@@H]12 = -0.0563

---

Entries and their measured z-score follow.
Experiment: CREB reporter modulators under forskolin, primary screen, cell-based, PC12, CRE-LacZ reporter, forskolin-stimulated (AID 1146);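 note: PC12 cells with 6xCRE LacZ reporter stimulated by forskolin 10 µM; beta-galactosidase reporter signal reflecting CREB driven transcription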
Details: luminescence, 4.5 h, higher = more signal, called active from +8 up or from −8 down
Observed property: z-score

CCOC(=O)[C@H](Cc1ccccc1)NC(=O)CCC1CC(OC(=O)NCc2cccc3ccccc23)CC2(CCCC(COC(=O)NCCOc3ccccc3)O2)O1 (some centres not stated) = 0.57
O=C1[C@H]2[C@H]3[C@H](O)[C@H](O)CC(=NO[C@@H]4O[C@H](CO)[C@@H](O)[C@H](O)[C@H]4O)[C@@H]3CC[C@H]2C(=O)N1C[C@@H]1CCCO1 = 0.0432
COC(=O)[C@H](C)NC(=O)CC=C[C@@H](C)[C@@H]1C=C[C@H](O)[C@@H](CO)O1 = 0.222
CN1CCc2nc(-c3ccccc3)c(-c3ccccc3)cc2C1 = 0.0655
CO[C@@H]1C=CCC(=O)N[C@@H](C)C(=O)OC[C@@H](OC)[C@H](C)C=CCC(=O)OC[C@H]1C = -0.384
C[C@@H](c1ccccc1)N1C(=O)[C@H]2[C@H]3[C@H](O)[C@H](O)CC(=NOCc4ccccc4)[C@@H]3CC[C@H]2C1=O = -0.166
COC(OC)[C@@H](C)[C@H](OC)[C@@H](C)[C@H](OC)c1ccccc1 = 0.0401
COc1ccc(-c2cnnc(CCCn3ccnc3-c3ccccc3)n2)cc1 = -0.631
CCOC(=O)[C@H](CC(C)C)NC(=O)CCC1CC(OC(=O)NCc2ccc3c(c2)OCO3)CC2(CCCC(COC(=O)NCCC(C)C)O2)O1 (some centres not stated) = 0.128
CC(=O)OC[C@H]1O[C@H](CC=NO[C@H](C)c2cn([C@@H]3COC[C@H]3O)nn2)C=C[C@@H]1OC(C)=O = -0.538
CC#CCOCCC=C1c2ccccc2[C@@H](OC)[C@@H]1C = -0.146
C[C@@H]1CC[C@@H](C(=O)O)N[C@H]1c1cccc(N2CCOCC2)c1 = -1.29
CC(CCC(=O)OC[C@H]1O[C@H](C#Cc2ccccc2)C=C[C@@H]1Oc1ccc(C)cc1)=NOC[C@@H](C)[C@H](OCc1ccccc1)C(C)C = 0.778
O=C1C2=CC[C@H]3C(=O)N(C4CCCCC4)C(=O)[C@H]3[C@H]2[C@H](O)[C@@H]2O[C@H]12 = 30.1
CC(C)=NOC(C)CN1CCCCc2nc(C)c(C)cc21 (configuration not stated) = 0.0266
CC(CCN1CCCCc2nc(C)c(C)cc21)=NOC[C@@H](O)[C@H]1O[C@@H]2OC(C)(C)O[C@@H]2[C@H]1O = 1.41
CO[C@H]1COC(=O)[C@H](C)COC(=O)[C@H](C)NC(=O)CC=C[C@H]1C = -0.506

Recorded values, source PubChem BioAssay.
